Catalogue of recombinant UMI read abundance (log10) readings, one per entry.
PROTOCOL NOTES: recombinant UMI read abundance after kanamycin selection (control-corrected) (log10(CPM+1)); higher = more efficient recombination; extreme values may be limits of the assay; sequences stand for … in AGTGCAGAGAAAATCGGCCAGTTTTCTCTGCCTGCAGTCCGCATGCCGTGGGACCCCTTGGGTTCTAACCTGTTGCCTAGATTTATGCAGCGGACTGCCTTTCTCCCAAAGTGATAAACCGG…AGGTTGGTTTCACT; site = the 11-nt donor;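 note: IS621 bridge recombinase in Escherichia coli cells against a fixed T5 target plasmid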
Give your answer as a number; write no unit.

// TACAGTCCATGGACCGGTTTTCCCGGTAATCCGTATTTGTA (site TAAAGTCCTTA) : recombinant UMI read abundance (log10) value = 0

Short answer for GAAGGTACATGGACCGGTTTTCCCGGTAATCCGTATTTGAC (site GCAGGTACTGT) : recombinant UMI read abundance (log10) was 0

Record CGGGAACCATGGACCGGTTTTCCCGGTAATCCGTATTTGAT (site AGGGAACCTAT) , field recombinant UMI read abundance (log10): 0

Measured recombinant UMI read abundance (log10) of GCCGACTCATGGACCGGTTTTCCCGGTAATCCGTATTTGCG (site GCCGACTCTCG) : 2.35

The recorded recombinant UMI read abundance (log10) for CTTGTAACATGGACCGGTTTTCCCGGTAATCCGTATTTGGC (site CTTGTAACTGC) is 0

Record summary for ATCTTTACATGGACCGGTTTTCCCGGTAATCCGTATTTGAC (site ATCTATACTGT) : reported recombinant UMI read abundance (log10) = 0.832
